Test system: SF-295 CNS
Experiment: NCI tumour cell line growth inhibition, 48 h

compound-smiles	TGI
FC(F)(F)c1ccc(NCc2nc3ccccc3[nH]2)cc1	65.8 µM
COc1ccc2nc3c([N+](=O)[O-])ccc(NCCN(C)C)c3c(NCCN(C)C)c2c1	3.03 µM
O=C(O)COc1ccc(C(=O)/C(SS/C(C(=O)c2ccc(OCC(=O)O)c(Cl)c2Cl)=C2\C=C(c3ccccc3Cl)SS2)=C2/C=C(c3ccccc3Cl)SS2)c(Cl)c1Cl	> 100 µM
Fc1ccc(-c2nn3c(COc4ccc(Cl)cc4Cl)nnc3s2)cc1Oc1ccccc1	20 µM
CN1CCN(c2ccc(Nc3ncc4cc5n(c4n3)C3(CCCCC3)CNC5=O)nc2)CC1	18.4 µM
C=C(CO)[C@H]1Oc2ccc(C(C)=O)cc2[C@@H]1O	> 100 µM
COc1ccc2c(c1)CCc1c-2n(CCN2CCOCC2)c2ccc(OC)cc12	> 100 µM

---

System: KM12 colon
Experiment: NCI tumour cell line growth inhibition, 48 h
The following compounds are shown together with reported TGI values.

compound	target-desc	TGI
O=C1CSC(c2ccccc2O)N1c1nc2cc3sc(N4C(=O)CSC4c4ccccc4O)nc3cc2s1 (stereo not given)	KM12 colon	> 100 µM
COCCOC1=C(Cl)C(=O)c2c(O)ccc(O)c2C1=O	KM12 colon	26.8 µM
COc1c(C)c(O)c2c(c1C)OC(c1ccccc1)CC2=O (stereo not given)	KM12 colon	> 100 µM
O=C1OC2(OC2c2ccc(Cl)cc2)c2ccccc21 (stereo not given)	KM12 colon	> 100 µM
C#CC(O)/C=C/C(O)CCCC(O)CC#CC(O)C#CC(O)CCCC(O)/C=C/CCCCCC(=O)CCCCCCCCCCCCCC(O)C(O)C#CC(=O)O (stereo not given)	KM12 colon	> 50 µM
COC1=CC(=O)C2C(C1=O)C(c1ccc(Cl)cc1)[C@@H]2C (stereo not given in full)	KM12 colon	> 100 µM
Cc1ccc(NC(=O)C(=O)CC(=O)c2ccccc2)cc1C	KM12 colon	> 100 µM
N=C1C(c2nc3ccccc3s2)=C(O)CN1c1cc(Cl)cc(Cl)c1	KM12 colon	> 100 µM
O=c1c2n[nH]nc2nc2n1CC(c1ccccc1)S2 (stereo not given)	KM12 colon	> 100 µM
COC(=O)/C(=N/NC(C)(C)C)C(C(=O)OC)C(=O)C(=O)Nc1nc2ccc([N+](=O)[O-])cc2s1 (stereo not given)	KM12 colon	> 100 µM

---

Tested on: SF-539 CNS
Assay: NCI tumour cell line growth inhibition, 48 h

compound	measurement-units	comparison-operator	TGI
CCc1ccc(/C=C/C(=O)C2CN(CC)CCC2(O)/C=C/c2ccc(CC)cc2)cc1 (stereo not given)	µM	=	6
CCOC(=O)CC(NCc1ccc(N=Cc2nc3ccc(C(F)(F)F)cc3nc2-c2ccccc2)cc1)C(=O)OCC (stereo not given)	µM	>	58
CSc1nc(Br)nc2ncn(C3CC(Oc4ccc(C)cc4)C(COc4ccc(C)cc4)O3)c12 (stereo not given)	µM	>	100
COc1cc(/C=C/c2cc(O)c(C/C=C(\C)CC/C=C(\C)CO)c(O)c2)cc2c1O[C@]1(C)CC[C@@H](O)C(C)(C)[C@H]1C2	µM	=	11.1
Nc1c(Br)cc(-c2nc3ccccc3s2)cc1Br	µM	>	100

---

System: HOP-92 NSCLC
Experiment: NCI tumour cell line growth inhibition, 48 h

molecule	TGI
Nc1ccc(C(=O)Nc2ccccc2N)cc1	> 100 µM
COc1cc(NC(=O)c2ccccc2Nc2ccnc(C(F)(F)F)c2)cc(OC)c1OC	74.1 µM
COc1c(C)c(O)c2c(c1C)OC(c1ccccc1)CC2=O (stereo unspecified)	> 100 µM
CNC(C)Cc1ccccc1OC (stereo unspecified)	> 100 µM
COC(=O)C(/C(=N/N)C(=O)Nc1cccc(O)c1)c1nc2ccccc2[nH]c1=O (stereo unspecified)	> 100 µM
COc1ccc(/C=C2\N=C(c3ccccc3)OC2=O)cc1OC(C)=O	> 100 µM
O=c1oc2c/c(=C\c3ccccn3)c(=O)c3cccc1c3-2	> 100 µM
O=c1c2ccccc2nc2sc(/N=C/C=C/c3ccccc3)nn12	> 100 µM
N#CC1=C(N)OC(c2cccc([N+](=O)[O-])c2)C1(C#N)C#N (stereo unspecified)	32.3 µM
CCn1c(O)c(C=Nc2ccccc2)s/c1=N/Nc1nc(-c2ccc(O)c(O)c2)cs1	> 100 µM
c1cc2c(c(NC3=NCCN3)c1)CCCC2	> 100 µM

---

Tested on: COLO 205 colon
Test: NCI tumour cell line growth inhibition, 48 h; in the data active = GI50 below about 0.43 µM; inactive = the rest
Classes used: active, inactive

molecule	class
COc1c2ccccc2c(O)c2c(=O)ccn(C)c12	inactive
CN1CCN(c2ccc(Nc3ncc4cc5n(c4n3)C3(CCCCC3)CNC5=O)nc2)CC1	active
CC1COCCN1CC#CCOC(=O)c1cc2ccccc2oc1=O (centres undefined)	inactive
COc1cc(Cn2c(SCC(=O)Nc3ccc(Cl)cc3)nc3ccccc3c2=O)cc(OC)c1OC	inactive
CC1(O)COCCCCOc2c(CN)cccc2NC(=O)c2nc(cnc2N)-c2ccc(cc2)S(=O)(=O)C(C)(C)C1 (centres undefined)	inactive
Oc1cccc(-c2nc(-c3ccccc3)[nH]c2-c2ccncc2)c1	inactive
CC/C(=N/N=C(N)N)c1ccc(NC(=O)Nc2ccc(/C(CC)=N/N=C(N)N)cc2)cc1	inactive
O=C1N=C(Nc2nc(-c3csc(NC4=NC(=O)/C(=C\c5ccc(Cl)cc5)S4)n3)cs2)S/C1=C/c1ccc(Cl)cc1	inactive
Fc1ccc(-c2nn3c(COc4ccc(Cl)cc4Cl)nnc3s2)cc1Oc1ccccc1	inactive

---

Tested on: U251 CNS
Experiment: NCI tumour cell line growth inhibition, 48 h
The following compounds are shown together with reported TGI values.

compound	TGI
N=C1/C(=C2\Nc3ccccc3S2)CC(=O)N1c1ccc(SC(F)F)cc1	29.7 µM
N#Cc1c(N)c(C#N)c2c(c1-c1ccc(Cl)cc1)COc1ccc(F)cc1-2	> 50 µM
Cc1nc2ccc(N)cc2[nH]c1=O	> 100 µM
Cc1c/c(=N/NC(=O)c2ccncc2)n2nc(N)sc2n1	> 100 µM
Cn1cnc2c1c(=O)n(CCNCCO)c(=O)n2C	> 100 µM
CCOC(=O)C1=C(c2ccccc2)N(C(C)=O)Cc2ccccc21	36.8 µM
COc1cc(NC(=O)c2ccccc2Nc2ccnc(C(F)(F)F)c2)cc(OC)c1OC	> 100 µM
CC(=O)C(C=O)C(C)=O.CC(=O)CC(C)=O.CC(=O)CC(C)=O.[Ru]	> 100 µM
CCCCCCSc1nc(COC(=O)NC)c(COC(=O)NC)n1C	> 100 µM
O=C(/C=C/c1ccc(O)cc1)c1cc(Cl)ccc1O	> 100 µM
COC(=O)C1(O)c2ccccc2N=C2C1CCN2C (centres undefined)	> 100 µM
CC1COCCN1CC#CCOC(=O)c1cc2ccccc2oc1=O (centres undefined)	> 100 µM
C=C1CC(C)(COc2ccc3c(C)cc(=O)oc3c2)OC1=O (centres undefined)	25.4 µM
O=C1N(CN2CCOCC2)CN(CN2CCOCC2)C(=O)N1Cc1ccc(CN2C(=O)N(CN3CCOCC3)CN(CN3CCOCC3)C2=O)cc1	> 100 µM
O=c1c2cc(O)c(O)cc2oc2cc(O)c(C3OC(CO)C(O)C(O)C3O)c(O)c12 (centres undefined)	> 100 µM
C=C1C(=O)C2(C)OC2(C)C1C(=O)O (centres undefined)	> 100 µM
COC(=O)/C(=N/NC(C)(C)C)C(C(=O)OC)C(=O)C(=O)Nc1nc2ccc([N+](=O)[O-])cc2s1 (centres undefined)	> 100 µM
Fc1ccc(C2C3CCOc4c(ccc5ccccc45)C3=NN2c2ccccc2)cc1 (centres undefined)	> 100 µM
N#CCC1(c2ccc(Cl)cc2)NC(=O)c2ccccc21 (centres undefined)	> 100 µM
COc1cc2c(cc1OC)C(=O)/C(=C/c1cc(Cl)cc(Cl)c1)C2	> 100 µM
COC(=O)N/N=C(/c1nc2ccc([N+](=O)[O-])cc2[nH]c1=O)C(O)c1ccc(OC)c(OC)c1 (centres undefined)	> 100 µM
Cc1cc2c(cc1C)C(=O)/C(=C/c1ccccc1C(=O)O)C2	68.8 µM
Cn1ccoc1=Nc1ccc(Cl)c(Cl)c1	> 10 µM
O=c1c2cc(S(=O)(=O)Nc3ccc(Cl)cc3Cl)ccc2ncn1NS(=O)(=O)c1cccc2ccccc12	> 100 µM
O=c1c2ccccc2nc2sc(/N=C/C=C/c3ccccc3)nn12	> 100 µM
CNN1C(=O)c2c(C)c(C)c(C#N)c(N)c2C1=O	> 100 µM
O=C1c2ccccc2C(=O)c2c1ccc1c2N=C(c2ccc(Br)cc2)CC(c2cccc3ccccc23)N1 (centres undefined)	> 100 µM
c1ccc2c3nnc(c2c1)SCCCSc1nnc(c2ccccc12)SCCCS3	> 100 µM
CS(=O)(=O)OCCN(CCOS(C)(=O)=O)c1ccc(/C=N/Nc2ncnc3nc[nH]c23)cc1	53.5 µM
CNCCNc1nc2ccccc2c2c(=O)c3cccc(C)c3sc12	2.25 µM
O=C1NC(=N[C@H](CO)c2ccccc2)S/C1=C\c1ccc2ncccc2c1	> 19.8 µM
COC(=O)N/N=C(\c1ccccc1)c1ccc(OC)cc1	> 100 µM
COC(CC1(OC)OC(=O)C=C1N)OC (centres undefined)	> 100 µM
Cc1ccc(N=NC(C2=NC(=O)CS2)c2nc3ccccc3[nH]2)cc1 (centres undefined)	> 100 µM
CCOC(=O)CC(=O)CSc1c(-c2ccccc2)c(=O)n(-c2ccccc2)c(=S)n1-c1ccccc1	> 100 µM
Cc1ccc(NC(=O)C(=O)CC(=O)c2ccccc2)cc1C	> 100 µM
O=C1CC[C@@H](NC(=O)Cc2ccccc2)C(=O)N1	> 100 µM
C[N+](C)(C)CCN[N+]1(C)CCCc2ccccc21 (centres undefined)	> 100 µM
CCCCCCCCCCCC(=O)OC(COC(N)=O)COc1ccc(Cl)cc1 (centres undefined)	52.7 µM
O=C(Nc1ncc([N+](=O)[O-])s1)c1ccccc1O	> 100 µM
CSc1nc2nc(C(O)C(O)C(O)CO)cnc2c(=O)[nH]1 (centres undefined)	> 100 µM
CCc1ccc(/C=C/C(=O)C2CN(CC)CCC2(O)/C=C/c2ccc(CC)cc2)cc1 (centres undefined)	3.41 µM
CN(C)c1ccc(/C=c2/c3ccccc3n3c2cc(NC(=O)NCCC[N+](C)(C)C)[n+]3C)cc1	> 100 µM
c1cc2c(c(NC3=NCCN3)c1)CCCC2	> 100 µM
